Value source: patent US6495544B2

Tested target: human endothelial constitutive NOS (hecNOS) (Homo sapiens, UniProt P29474)
pIC50: −log10 of the molar value.
Would you mind telling me the reported pIC50 of each entry?

Identify the reported pIC50 for the following entry. Cl.N=C1CCCC[C@@H](CCCC[C@H](N)C(=O)O)N1.O.O.O [Example 2, trihydrate hydrochloride]
< 3.82

State recorded pIC50 for all listed molecules.
1. Cl.N=C1CCCC[C@H](CCCC[C@@H](N)C(=O)O)N1.O.O.O [Example 1, trihydrate hydrochloride]
2. Cl.N=C1CCCC[C@H](CCCC[C@H](N)C(=O)O)N1.O.O.O [Example 4, trihydrate hydrochloride]

1: < 4.52; 2: < 4.82

----------
The listing below reports IC50 for compounds tested on human neuronal constitutive NOS (hncNOS) (Homo sapiens).

Identify the reported IC50 for the following entry. Cl.N=C1CCCC[C@H](CCCC[C@@H](N)C(=O)O)N1.O.O.O [Example 1, trihydrate hydrochloride]
> 3 µM

Identify the reported IC50 for the following entry. Cl.N=C1CCCC[C@@H](CCCC[C@H](N)C(=O)O)N1.O.O.O [Example 2, trihydrate hydrochloride]
> 10 µM

Below: the item to evaluate.
Identify the reported IC50 for the following entry. Cl.N=C1CCCC[C@H](CCCC[C@H](N)C(=O)O)N1.O.O.O [Example 4, trihydrate hydrochloride]
> 3 µM
